# Assay: NCI Yeast Anticancer Drug Screen. Data for the rad50 strain (AID 155);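 note: 0% = growth of vehicle-only cultures of the same strain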
# Condition parameters: S. cerevisiae rad50 strain growth inhibition; at 50.0 µM; active compounds read high
# Experimental: Growth inhibition of yeast strains with defined genetic alterations is measured as a screen for potential anti-cancer activity. Selected strains with alterations in DNA damage repair or cell cycle control were exposed to compounds and growth inhibition was measured relative to vehicle treated controls. The strain used in this assay is rad50
About 79,000 compounds went through this panel and 15% of them were active in at least one assay; those are over-represented in the sample as a whole. Active and inactive are the calls of the source. Cut-off read from the data, not from the text of the source: active = growth inhibition above about 70%; inactive = the rest.
Quantity name: growth inhibition

Previously resolved entries follow.
CCCCCCCCCNP(=O)(OCc1ccccc1)N(CCCl)CCCl (centres undefined); 55.5% (inactive)
[Cl][Hg][c]1cccs1; 99.6% (active)
Cc1cc2[nH]c3c(C#N)c(OC(=O)N(C)C)c(-c4ccccc4)c(=O)n3c2cc1C; -8.75% (inactive)
Oc1ccccc1/C=N/C(O)C(Cl)(Cl)Cl (centres undefined); 30.2% (inactive)
Oc1ccccc1C=NCCN=Cc1ccccc1O.[Fe]; 11.8% (inactive)

For each entry beneath this line, provide reported growth inhibition.
1. O=NNc1ncc([N+](=O)[O-])cn1
2. O=C(NC1=NN(Cc2ccccc2)C(=O)C1)c1ccc(S(=O)(=O)F)cc1
3. O=C1OC(C(O)CO)C(O)=C1OC[N+]1(CCCl)CCN(CCCl)CC1 (centres undefined)
4. NC(Cc1cccc(NP(=S)(NCCO)N2CC2)c1)C(=O)O (centres undefined)

Outgoing:
["-1.05% (inactive)", "-0.35% (inactive)", "11.8% (inactive)", "-4.95% (inactive)"]
